- experimental protocol: qHTS assay for re-activators of p53 using a Luc reporter: Hit Validation with no p53 Expressed
- condition notes: p53-null cells, luciferase reporter counter-screen; series mostly up to 46.1 µM
Inconclusive results are not listed. Active and inactive are the calls of the source. Calls come from the whole dose curve; as a rule, active = well fitted activation curve with a large enough effect; inconclusive = small, poorly fitted or top-dose-only effect; inactive = no such curve, though single readings can be large or run the other way.
property: outcome

Answered cases to consult:
# smiles, outcome
measured = [
    ("Cc1ccc(C(=O)CC(=O)COc2ccc(Cl)cc2)cc1", "inactive"),
    ("CCOCCCNc1nc2c([nH]1)c(=O)n(C)c(=O)n2C", "inactive"),
    ("Nc1ccc(-c2cnc(-c3ccc(N)cc3)nc2)cc1", "inactive"),
    ("Cc1cc(C(=O)Nc2nc3c(s2)CCCC3)cs1", "inactive"),
    ("Cc1cccc(NC(=O)c2oc3c(c2C)C(=O)CC(C)(C)C3)n1", "inactive"),
]

The molecule identified as CCN(CC)C(=O)CNC(=S)N(CCCN1CCOCC1)Cc1cccs1 registered its outcome at inactive

----------
- experimental protocol: qHTS assay for re-activators of p53 using a Luc reporter: Hit Validation with no p53 Expressed
- condition notes: p53-null cells, luciferase reporter counter-screen; series mostly up to 46.1 µM
Records with an inconclusive call do not appear. Active and inactive are the calls of the source. Calls come from the whole dose curve; as a rule, active = well fitted activation curve with a large enough effect; inconclusive = small, poorly fitted or top-dose-only effect; inactive = no such curve, though single readings can be large or run the other way.
Output constraint: value belongs to class 1 for active, class 0 for inactive

Query block: Recorded test outcome, item CC(C)CCn1cnc2c(sc3nc4c(cc32)CSC(C)(C)C4)c1=O
Result block: class 0

Query block: What is the recorded call for this compound in the test? COc1ccc2nc(SCc3ccccc3)nc(C)c2c1
Result block: class 0

Query block: So what was the verdict on COc1cccc(NC(=O)CSC2=C(C#N)C(c3ccco3)C3=C(CCCC3=O)N2)c1 (stereo unspecified) in this test?
Result block: class 0

Query block: Query: recorded result category for CC(C)c1ccc(NC(=O)c2snc3ccc(Cl)cc23)cc1 in this test
Result block: class 1

Query block: Outcome? COc1ccccc1C(=O)CC(=O)c1ccccc1
Result block: class 0

Query block: How was COCC(=O)Nc1nnc(COc2ccccc2)s1 classified in this test?
Result block: class 0

----------
- experimental protocol: qHTS assay for re-activators of p53 using a Luc reporter: Hit Validation with no p53 Expressed
- condition notes: p53-null cells, luciferase reporter counter-screen; series mostly up to 46.1 µM
Records with an inconclusive call do not appear. The source made the active and inactive calls. Calls come from the whole dose curve; as a rule, active = well fitted activation curve with a large enough effect; inconclusive = small, poorly fitted or top-dose-only effect; inactive = no such curve, though single readings can be large or run the other way.
Classes to choose from: YES = active, NO = inactive

Query block: // param item: Cc1cc(C)nc(CC(N)=O)n1 ; yields the recorded call
Result block: NO

Query block: Tell me the assay call for O=C(N/N=C\c1cccc(Cl)c1)c1n[nH]c2c1CCCC2 please.
Result block: NO

Query block: Assay outcome for Cc1ccsc1/C=C(\C#N)C(=O)Nc1c(C)n(C)n(-c2ccccc2)c1=O : what was it?
Result block: NO

Query block: Tell me the assay call for O=C(NNc1c2ccccc2nc2ccccc12)c1ccc(O)cc1 please.
Result block: NO

Query block: Hello, I am checking results. What call was entered for COc1ccccc1C(=O)NC(=S)NNC(=O)c1sc2ccccc2c1Cl ?
Result block: NO

Query block: Which outcome was assigned to Cc1cc(NC(=O)c2ccc3c(c2)OCCO3)no1 in this test?
Result block: NO

Query block: Test call, this molecule: O=C(Nc1nc2ccccc2s1)c1ccc2c(c1)OCO2
Result block: NO

Query block: // param item: Cc1c(C(=O)OC2CCC(C)CC2)[nH]c2c1C(=O)CCC2 (stereo not drawn) ; yields the recorded call
Result block: NO

Query block: Hello, I am checking results. What call was entered for Cc1cc(Oc2ccccc2)nc(-c2ccccc2O)n1 ?
Result block: NO

Query block: I would be grateful if you could indicate the recorded call for O=C(N/N=C/C1C(c2ccccc2)C1(Cl)Cl)c1cccc(Cl)c1 (stereo not drawn) .
Result block: NO

Query block: Record request — test call for COc1ccc(N2COC3c4cccc5cccc(c45)C32)cc1 (stereo not drawn)
Result block: NO

Query block: Entry COc1ccc(C(=O)Nc2nnc(C(F)(F)F)s2)cc1 : call = ?
Result block: NO

Query block: Could you check what this test reported for Cn1c(C(=O)Nc2ccc3c(c2)OCCO3)cc2sccc21 ?
Result block: YES

Query block: What is the recorded call for this molecule in the test? c1ccc(-c2cc3cc4c(cc3cn2)OCO4)cc1
Result block: NO

Query block: In this assay, the call recorded for C/C(=N\NC(=S)NC1CCCCC1)c1ccccc1 was what?
Result block: NO

Query block: In this assay, the call recorded for Fc1ccccc1/C=C/c1ccc2ccccc2n1 was what?
Result block: NO

Query block: Outcome? Cc1ccc2nc(-c3ccc(NC(=O)COC(=O)c4ccc(Br)o4)cc3)sc2c1
Result block: NO

Query block: Hey, what did the test say about Cc1ccc(C)c(Oc2cc(NC(=O)CCCn3nc(C)c([N+](=O)[O-])c3C)cc([N+](=O)[O-])c2)c1 ?
Result block: NO

Query block: For this molecule, state the assay outcome: Clc1ccc(OCc2nc(-c3ccccn3)no2)c(Br)c1
Result block: NO

Query block: Please indicate how the test categorized O=C(O)C1CC(=O)N(c2ccc(Br)cc2)C1 (stereo not drawn) .
Result block: NO

Query block: Recorded call for Cc1cc(C(=O)N2CCN(c3ccccc3Cl)CC2)c(C)o1 ?
Result block: NO

Query block: For CC(C)C(=O)OCC(=O)Nc1ccc(N=Nc2ccccc2)cc1 , which call appears in the assay record?
Result block: NO

Query block: Tell me the assay call for c1cnc2c(OCc3nc4ccccc4[nH]3)cccc2c1 please.
Result block: NO

Query block: Dear all, I need the recorded test outcome for COc1nnc(-c2ccc(C)c(S(=O)(=O)N(C)C)c2)c2ccccc12 , thank you.
Result block: NO

Query block: Per the records of this test, what outcome belongs to CCc1ccc(OCC(=O)NC(NC(=S)Nc2ccccc2C)C(Cl)(Cl)Cl)cc1 (stereo not drawn) ?
Result block: NO

Query block: Test call for this molecule, please: CC(C)C(=O)NC(c1cccs1)c1cc([N+](=O)[O-])c2cccnc2c1O (stereo not drawn)
Result block: NO

Query block: Dear all, I need the recorded test outcome for c1nc(C2CCCCC2)cc2cc3c(cc12)OCO3 , thank you.
Result block: NO

Query block: Given O=C(CCN1C(=O)/C(=C/c2ccccc2Cl)SC1=S)N1CCOCC1 , state the outcome it received in this test.
Result block: NO

Query block: Entry Cc1ccsc1/C=C1\CCc2ccccc2C1=O : call = ?
Result block: NO

Query block: Which outcome was entered for the molecule COc1ccc2c(c1OC)C(=O)OC2Nc1nc(-c2cc3ccccc3oc2=O)cs1 (stereo not drawn) in this test?
Result block: NO

Query block: Given O=C(CSc1nc2ccccc2c(=O)[nH]1)c1ccc(O)c(O)c1 , state the outcome it received in this test.
Result block: NO

Query block: Field: outcome | Entry: COc1ccc(-c2nc(-c3ccc(NC(=O)c4ccncc4)cc3)no2)cc1OC
Result block: NO

Query block: Test call for this molecule, please: Brc1c(CSc2nc3ccccc3s2)nc2ncccn12
Result block: NO

Query block: Hi, do you know how Cc1cc(C(=O)Nc2ccc(Br)cn2)sc1C came out in this test?
Result block: NO

Query block: Which outcome did this test record for the molecule Cc1cc(F)ccc1NC(=O)Nc1ccc2c(c1)OCO2 ?
Result block: NO

Query block: Status in this test for C/C(=C\C(=O)c1ccccc1)Nc1ccc2c(c1)OCO2 ?
Result block: NO

Query block: Tell me the recorded outcome of this test for COc1cc(CN2CCCCC2C(=O)Nc2ccc(Oc3ccccc3)nc2)ccc1O (stereo not drawn) .
Result block: NO

Query block: Look up the recorded call for CNc1ccc(/C=C/C(=O)c2ccc(C)cc2)cc1[N+](=O)[O-] in this test.
Result block: NO

Query block: Recorded call for O=C(NCCCNC1CCCCC1)c1ccc(/C=N/O)nc1 ?
Result block: NO

Query block: Can you look up the reported call for O=C(O)/C=C/c1nc(-c2ccccc2)n2ccccc12 for me?
Result block: NO

Query block: Short answer needed: outcome of this test for Cc1ccc2oc(C(=O)Nc3cc(C)on3)c(C)c2c1 ?
Result block: YES

Query block: Write down the call the test reported for this molecule. Item: O=C(/C(=N/N=C/c1ccc(O)c(O)c1)c1ccccc1)c1ccccc1
Result block: NO

Query block: What is the recorded call for this molecule in the test? O=C(/C(=C\c1ccccc1)c1nc2ccccc2[nH]1)c1ccc(Cl)cc1
Result block: NO

Query block: What did the test return for COc1ccc2c(=O)c(-c3nc(C)cs3)coc2c1 ?
Result block: NO

Query block: Any idea what this test logged for COCCCNC(=O)Nc1ccc(Br)cc1Cl ?
Result block: NO

Query block: Could you please tell me the result logged for CC(=O)Nc1ccc(SCC(=O)c2cc(C)n(-c3ccccc3)c2C)cc1 in this assay?
Result block: NO

Query block: Short answer needed: outcome of this test for C=CCOc1c(Br)cc(CNCCCN2CCOCC2)cc1OC ?
Result block: NO

Query block: Short answer needed: outcome of this test for Brc1ccccc1-c1nc(-c2ccccc2)no1 ?
Result block: NO
